Species: Rattus norvegicus
Test: Concentration required to inhibit insulin release in rat pancreatic islets by 50% upon incubation with the compound at 37 degree C for 90 mins
Type: functional, organism-based
Conditions: 1.5 h
pIC50: −log10 of the molar value.
# label = satisfied if pIC50 >= 6 else not satisfied

Exam item: decide whether the reported pIC50 for CC(C)NC1=NS(=O)(=O)c2cc(Cl)c(Cl)cc2N1 is at least 6.
satisfied

Exam item: decide whether the reported pIC50 for CC(C)NC1=NS(=O)(=O)c2cc(Br)c(Cl)cc2N1 is at least 6.
satisfied

Exam item: decide whether the reported pIC50 for CCNC1=NS(=O)(=O)c2cc(Br)c(Cl)cc2N1 is at least 6.
satisfied

Exam item: decide whether the reported pIC50 for COc1cc2c(cc1Cl)NC(NC1CCC1)=NS2(=O)=O is at least 6.
satisfied

Exam item: decide whether the reported pIC50 for CCNC1=NS(=O)(=O)c2cc(Cl)c(Cl)cc2N1 is at least 6.
satisfied

Exam item: decide whether the reported pIC50 for COc1ccc2c(c1)S(=O)(=O)NC(NC(C)C)=N2 is at least 6.
not satisfied

Exam item: decide whether the reported pIC50 for O=S1(=O)N=C(NC2CCC2)Nc2cc(Cl)c(F)cc21 is at least 6.
satisfied

Exam item: decide whether the reported pIC50 for O=S1(=O)NC(NC2CC2)=Nc2cc(Cl)c(Cl)cc21 is at least 6.
not satisfied

Exam item: decide whether the reported pIC50 for CC(C)CNC1=NS(=O)(=O)c2cc(F)c(F)cc2N1 is at least 6.
not satisfied

Exam item: decide whether the reported pIC50 for CCCNC1=NS(=O)(=O)c2cc(F)c(Cl)cc2N1 is at least 6.
satisfied

----------
Exercise: for every item that follows, state its recorded pIC50.
Species on record: Rattus norvegicus
Assay: Concentration required to inhibit insulin release in rat pancreatic islets by 50% upon incubation with the compound at 37 degree C for 90 mins
Assay type: functional, organism-based
Details: 1.5 h
The meaning of pIC50 here: minus log10 of the concentration in molar units.

Fill blank: measured pIC50 of the compound CCCNC1=NS(=O)(=O)c2cc(Cl)c(Cl)cc2N1 is ____.
5.86

Fill blank: measured pIC50 of the compound CCNC1=NS(=O)(=O)c2cc(OC)c(Cl)cc2N1 is ____.
6.32

Fill blank: measured pIC50 of the compound CCNC1=NS(=O)(=O)c2cc(F)c(Cl)cc2N1 is ____.
6.70

Fill blank: measured pIC50 of the compound CCNC1=NS(=O)(=O)c2cc(F)c(F)cc2N1 is ____.
6.43

Fill blank: measured pIC50 of the compound COc1cc2c(cc1Cl)NC(NC(C)C)=NS2(=O)=O is ____.
6.62

Fill blank: measured pIC50 of the compound CC(C)NC1=NS(=O)(=O)c2cc(Br)ccc2N1 is ____.
6.33

Fill blank: measured pIC50 of the compound O=S1(=O)NC(NC2CCC2)=Nc2cc(Cl)c(Cl)cc21 is ____.
5.90

Fill blank: measured pIC50 of the compound C=CCNC1=Nc2cc(Cl)c(Cl)cc2S(=O)(=O)N1 is ____.
5.72

Fill blank: measured pIC50 of the compound O=S1(=O)NC(NC2CCC2)=Nc2cc(Cl)c(Br)cc21 is ____.
5.92

Fill blank: measured pIC50 of the compound CC(C)NC1=NS(=O)(=O)c2cc(F)c(Cl)cc2N1 is ____.
6.80

Fill blank: measured pIC50 of the compound CC(C)NC1=NS(=O)(=O)c2cc(F)c(F)cc2N1 is ____.
6.52
